- assay_target: CD28 (Homo sapiens, UniProt P10747)
- assay_overview: Flow binding to Jurkat/IL2 reporter cells (CD28)
- Set-up: host or cells: Jurkat cells expressing an IL-2-luciferase reporter
- experimental_conditions: Table E11; Jurkats (CD28); 33.3 nM
- Description: Binding of selected immunomodulatory fusion proteins to cognate binding partners was assessed. […] Cells were sorted in a Bio-Rad S3 Cell Sorter (Bio-Rad Corp., USA) to >98% purity. […] For staining and analysis by flow cytometry, 100,000 cells of appropriate transfected cells were plated in 96-well round bottom plates. […] Cells were then washed twice with 150 μL/well stain buffer, fixed in 2% formaldehyde/PBS, and analyzed on Intellicyt flow cytometer (Intellicyt Corp., USA). […]
measure_name: CD28 MFI at 33.3 nM

CD28 MFI at 33.3 nM for T13R/Q33R/E35D/M38I/M47L/V68M/E95V/L97Q (protein, UniProt P33681 35-288, looked up, variant T13R Q33R E35D M38I M47L V68M E95V L97Q) T-lymphocyte activation …: VIHVTKEVKEVARLSCGHNVSVEELAQTRIYWRKDKKIVLTMMSGDLNIWPEYKNRTIFDITNNLSIMILALRPSDEGTYECVVLKYEKDAFKRVHQAEVTLSVKADFPTPSISDFEIPTSNIRRIICSTSGGFPEPHLSWLENGEELNAINTTVSQDPETELYAVSSKLDFNMTTNHSFMCLIKYGHLRVNQTFNWNTTKQEHFPDNLLPSWAITLISVNGIFVICCLTYCFAPRCRERRRNERLRRESVRPV ?
1111
